Exercise: state measured folding stability dG for each of the variants provided.
B1: HEEH_KT_rd6_0007 (parent)
chain: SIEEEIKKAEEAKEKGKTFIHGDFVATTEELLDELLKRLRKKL

variants of: B1; assay: folding stability dG (cDNA display proteolysis); higher = more stable; conditions: PBS, room temperature
Answers are plain numbers, in kcal/mol.

// solved cases for folding stability dG follow
D23K: 1.06
E14P: 0.587
K42Q: 1.42
K41H: 1.15
R40V: 0.699
T18Q: 1.28
I20K: 0.994
K8L: 1.23

I have 7 variants here; please give me folding stability dG for each one.
1. A9S
2. E10F
3. A26Q
4. R38H
5. E30P
6. L39E
7. R38V

0.634
1.07
0.685
1.6
0.673
-0.449
1.37
